Test system: CP305
Assay: qHTS profiling for inhibitors of Plasmodium falciparum proliferation (AID 504749); note: nearly all actives have a fitted effect of over 60% in size
Conditions: P. falciparum in erythrocytes, SYBR Green DNA, 72 h; series mostly up to 12.8 µM
Results filed as inconclusive are left out. The source made the active and inactive calls. Calls come from the whole dose curve; as a rule, active = well fitted inhibition curve with a large enough effect; inconclusive = small, poorly fitted or top-dose-only effect; inactive = flat fitted curve, though single readings scatter.
property name: outcome

1. O=C(NC[C@@H](O)CO)c1c(I)c(C(=O)NC[C@@H](O)CO)c(I)c(N(CCO)C(=O)CO)c1I :: inactive
2. CC(=O)O[C@@]1(C(C)=O)CCC2C3CC(C)C4=CC(=O)CC[C@@]4(C)C3CC[C@]21C (stereo not given in full) :: inactive
3. CNC1CC(N)[C@H](O)[C@@H](O[C@@H]2OC(CO)C3OC4(OC(C(N)CO)C(O)C(O)C4O)O[C@@H]3[C@H]2O)C1O (stereo not given in full) :: inactive
4. CN(C)CCn1nnnc1SCC1=C(C(=O)O)N2C(=O)[C@@H](NC(=O)Cc3csc(N)n3)[C@@H]2SC1 :: inactive
5. NS(=O)(=O)c1cc2c(cc1C(F)(F)F)N[C@H](Cc1ccccc1)NS2(=O)=O :: inactive
6. C[C@]1(c2ccccc2)OC(C(=O)O)=CC1=O :: inactive
7. CCCCC[C@H](O)/C=C\[C@@H]1[C@H](O)CC(=O)[C@@H]1CCCCCCC(=O)O :: inactive
8. O=C1OC(CO)C(O)C(O)C1O (stereo not given) :: inactive
9. CC1(C)OC2CC(=O)OC[C@@]23C1CC(=O)[C@]1(C)C3CC[C@@]2(C)C(c3ccoc3)OC(=O)C3O[C@@]321 (stereo not given in full) :: inactive
10. CO[C@]1(NC(=O)[C@H](C(=O)O)c2ccc(O)cc2)C(=O)N2C(C(=O)O)=C(CSc3nnnn3C)CO[C@H]21 :: inactive
